System: RAW-Dual (murine macrophage reporter line)
Test Summary: IRF reporter (Lucia luciferase) activity fold change vs agonist alone; higher = enhanced IRF activity
Experimental Parameters: modulator concentration 10 µM; agonist: LPS 0.1 ug/mL
Property: IRF reporter
Give the figure by itself; no unit, no explanation.

Examples with their reported IRF reporter follow.
[
  {
    "Molecule": "Cc1cc(OC2CN(C(=O)Cc3c[nH]c4ccccc34)C2)cc(=O)n1C1CC1",
    "IRF reporter": 1.2
  },
  {
    "Molecule": "Cc1ccc(C(=O)NC(=Cc2ccccc2)C(=O)NCCCn2ccnc2)cc1",
    "IRF reporter": 1.45
  },
  {
    "Molecule": "Cc1cc2c(s1)Nc1ccccc1N=C2N1CCN(C)CC1",
    "IRF reporter": 1.16
  },
  {
    "Molecule": "O=C(Cn1ccnc1[N+](=O)[O-])NCCO [Prestw-649]",
    "IRF reporter": 0.982
  },
  {
    "Molecule": "CC12CCC3c4ccc(O)cc4CCC3C1CCC2OC(=O)CCC1CCCC1 (stereo not given)",
    "IRF reporter": 1.15
  },
  {
    "Molecule": "CC1(C)OC(=O)C(=Cc2ccc(I)o2)C(=O)O1",
    "IRF reporter": 1.02
  }
]

Q: Would you kindly share the measured IRF reporter for O=C(O)CSc1nnc(Br)n1-c1ccc(C2CC2)c2ccccc12 ?
Result: 1.35

Q: Would you kindly share the measured IRF reporter for Oc1ccc(O)cc1 ?
Result: 0.58

Q: Would you kindly share the measured IRF reporter for COc1ccc(-c2oc(N=Cc3ccccc3O)c(C#N)c2-c2ccc(OC)cc2)cc1 ?
Result: 1.05

Q: Would you kindly share the measured IRF reporter for COC(=O)NN=Cc1cccs1 ?
Result: 1

Q: Would you kindly share the measured IRF reporter for NC(=O)c1cccnc1 ?
Result: 0.984

---

System: RAW-Dual (murine macrophage reporter line)
Test Summary: IRF reporter (Lucia luciferase) activity fold change vs agonist alone; higher = enhanced IRF activity
Experimental Parameters: modulator concentration 10 µM; agonist: 3'3'-cGAMP 10 ug/mL
Lab note: compare IRF reporter against 0.8. Equal or greater, write fulfilled. Smaller, write not fulfilled.

[
  {
    "Molecule": "COC(C)(CNC(=O)c1cc2ccccc2[nH]1)c1ccccc1F (centres undefined)",
    "Group Label": "fulfilled"
  },
  {
    "Molecule": "O=C(NC1CCN(CCCCC2(C(=O)NCC(F)(F)F)c3ccccc3-c3ccccc32)CC1)c1ccccc1-c1ccc(C(F)(F)F)cc1",
    "Group Label": "fulfilled"
  },
  {
    "Molecule": "O=c1[nH]c(NN=Cc2c3ccccc3cc3ccccc23)nc2ccccc12",
    "Group Label": "fulfilled"
  },
  {
    "Molecule": "CCCCc1c(C)nc(NN=C(C)c2cccc([N+](=O)[O-])c2)nc1O",
    "Group Label": "fulfilled"
  },
  {
    "Molecule": "COc1ncc(-c2ccc3nccc(-c4ccnnc4)c3c2)cc1NS(=O)(=O)c1ccc(F)cc1F",
    "Group Label": "not fulfilled"
  },
  {
    "Molecule": "CCc1ccc2ncc(C#N)c(Nc3cc(OC)c(OC)c(OC)c3)c2c1.Cl",
    "Group Label": "not fulfilled"
  }
]

Q: Textbook exercise: given the entry CC(=O)N1CCN(C(=O)Cn2cnc(-c3ccc(C)cc3)cc2=O)CC1 , state whether its IRF reporter is greater than or equal to 0.8.
Result: fulfilled

Q: Textbook exercise: given the entry c1ccc(CNc2nc(N3CCOCC3)nc(N3CCOCC3)n2)cc1 , state whether its IRF reporter is greater than or equal to 0.8.
Result: not fulfilled
